Molecular target: CDK6-CYCLIN D3 (Homo sapiens)
Sequence (Q00534 whole entry): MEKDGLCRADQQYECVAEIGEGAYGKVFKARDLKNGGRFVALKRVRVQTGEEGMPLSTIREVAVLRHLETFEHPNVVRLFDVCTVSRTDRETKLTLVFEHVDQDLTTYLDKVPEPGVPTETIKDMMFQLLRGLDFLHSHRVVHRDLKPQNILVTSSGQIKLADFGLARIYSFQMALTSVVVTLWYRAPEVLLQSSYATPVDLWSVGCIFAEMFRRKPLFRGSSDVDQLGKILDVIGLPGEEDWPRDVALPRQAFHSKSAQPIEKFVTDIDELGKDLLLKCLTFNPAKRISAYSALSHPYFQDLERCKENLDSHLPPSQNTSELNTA
Sequence (P30281 whole entry partner): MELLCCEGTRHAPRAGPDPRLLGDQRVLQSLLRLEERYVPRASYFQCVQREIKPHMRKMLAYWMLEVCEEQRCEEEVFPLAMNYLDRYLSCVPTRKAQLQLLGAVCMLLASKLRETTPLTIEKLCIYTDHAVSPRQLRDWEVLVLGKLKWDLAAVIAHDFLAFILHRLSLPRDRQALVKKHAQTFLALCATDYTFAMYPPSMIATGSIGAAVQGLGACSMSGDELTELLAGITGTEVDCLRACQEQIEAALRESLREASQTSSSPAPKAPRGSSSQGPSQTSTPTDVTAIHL
Assay: CDK protein kinase inhibition by ADP-Glo assay, CDK6-CYCLIN D3
Assay type: biochemical
Settings: CDK2 versus CDK6; Table 20
readoutName: CDK2 Fold selectivity, CDK6

>  <smi>
C[C@@H]1CCCCc2cc(ccn2)Nc2cc(n[nH]2)[C@H]2CC[C@H](C2)OC(=O)N1

>  <CDK2 Fold selectivity, CDK6>
E (E, <20)

$$$$
>  <smi>
C[C@H]1CC/C=C/c2cc(ccn2)Nc2cc(n[nH]2)[C@H]2CC[C@H](C2)OC(=O)N1

>  <CDK2 Fold selectivity, CDK6>
D (D, >20 and ≤50)

$$$$
>  <smi>
C[C@@H]1CC/C=C/c2cc(ccn2)Nc2cc(n[nH]2)[C@H]2CC[C@H](C2)OC(=O)N1

>  <CDK2 Fold selectivity, CDK6>
E (E, <20)

$$$$
>  <smi>
C[C@H]1CCCCc2cc(ccn2)Nc2cc(n[nH]2)[C@H]2CC[C@H](C2)OC(=O)N1

>  <CDK2 Fold selectivity, CDK6>
E (E, <20)

$$$$
>  <smi>
O=C1NCCCCC(F)(F)c2cc(ccn2)Nc2cc([nH]n2)[C@H]2CC[C@H](C2)O1

>  <CDK2 Fold selectivity, CDK6>
D (D, >20 and ≤50)

$$$$

Sure, the documented CDK2 Fold selectivity, CDK6 for C[C@@H]1CCC#Cc2cc(ccn2)Nc2cc(n[nH]2)[C@H]2CC[C@H](C2)OC(=O)N1 is D (D, >20 and ≤50)

---

Molecular target: CDK1-CYCLIN B (Homo sapiens)
Assay: CDK protein kinase inhibition by ADP-Glo assay, CDK1-CYCLIN B
Format: biochemical
Conditions: CDK2 versus CDK1; Table 14
readoutName: CDK2 Fold selectivity, CDK1

>  <molecule>
O=C1NC23CC(CCCc4cc(ccn4)Nc4cc(n[nH]4)[C@H]4CC[C@H](C4)O1)(C2)C3 [Compound 96]

>  <readoutName>
CDK2 Fold selectivity, CDK1

>  <assayValue>
E (E, <20)

$$$$
>  <molecule>
C[C@@H]1CCCNC(=O)O[C@@H]2CC[C@@H](C2)c2cc([nH]n2)Nc2cncc(c2)O1 [Compound 121]

>  <readoutName>
CDK2 Fold selectivity, CDK1

>  <assayValue>
D (D, >20 and ≤50)

$$$$
>  <molecule>
C[C@@H]1CCCOc2cncc(c2)Nc2cc(n[nH]2)[C@H]2CC[C@H](C2)OC(=O)N1 [Compound 120]

>  <readoutName>
CDK2 Fold selectivity, CDK1

>  <assayValue>
E (E, <20)

$$$$
>  <molecule>
C[C@H]1CCCOc2cncc(c2)Nc2cc(n[nH]2)[C@H]2CC[C@H](C2)OC(=O)N1 [Compound 119]

>  <readoutName>
CDK2 Fold selectivity, CDK1

>  <assayValue>
D (D, >20 and ≤50)

$$$$

---

Molecular target: CDK1-CYCLIN B (Homo sapiens, UniProt P06493)
Sequence (P06493 whole entry): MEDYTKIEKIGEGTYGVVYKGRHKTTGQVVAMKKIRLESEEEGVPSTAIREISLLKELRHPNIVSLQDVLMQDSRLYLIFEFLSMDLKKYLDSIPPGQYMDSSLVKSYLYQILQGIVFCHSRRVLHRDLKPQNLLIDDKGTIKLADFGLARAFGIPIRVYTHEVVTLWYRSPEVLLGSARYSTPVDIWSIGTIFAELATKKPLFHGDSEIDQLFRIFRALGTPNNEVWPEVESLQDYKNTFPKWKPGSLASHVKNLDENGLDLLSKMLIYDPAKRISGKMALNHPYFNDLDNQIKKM
Sequence (P14635 whole entry partner): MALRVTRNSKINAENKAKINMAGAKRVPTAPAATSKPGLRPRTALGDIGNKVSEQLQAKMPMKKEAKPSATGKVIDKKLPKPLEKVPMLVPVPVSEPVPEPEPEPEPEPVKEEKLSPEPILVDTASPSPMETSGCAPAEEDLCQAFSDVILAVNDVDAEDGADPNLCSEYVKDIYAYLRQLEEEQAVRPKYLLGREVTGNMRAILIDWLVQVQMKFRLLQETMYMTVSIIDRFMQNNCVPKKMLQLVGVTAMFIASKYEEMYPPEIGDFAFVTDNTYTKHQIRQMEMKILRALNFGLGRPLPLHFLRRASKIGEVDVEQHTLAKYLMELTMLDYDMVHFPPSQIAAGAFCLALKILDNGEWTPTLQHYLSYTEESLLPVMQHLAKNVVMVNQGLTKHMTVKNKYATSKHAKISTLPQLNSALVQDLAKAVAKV
Assay: CDK protein kinase inhibition by ADP-Glo assay, CDK1-CYCLIN B
Type: biochemical
Conditions: ADP-Glo, 1000 μM ATP; Table 29; read-out: CDK1-CYCLINB, IC50
readoutName: IC50

>  <compound>
C[C@@H]1NC(=O)O[C@@H]2CC[C@@H](C2)c2cc([nH]n2)Nc2ccnc(c2)OCCC1(F)F [Compound 181]

>  <IC50>
100 to 500 nM

$$$$

Please turn your attention to the following entry.
Sure, the documented IC50 for C[C@H]1CCCOc2cc(ccn2)Nc2cc([nH]n2)[C@H]2CC[C@H](C2)OC(=O)N1 [Compound 9] is 100 to 500 nM

---

Target: CDK9-CYCLIN T1 (Homo sapiens, UniProt P50750)
Sequence (P50750 whole entry): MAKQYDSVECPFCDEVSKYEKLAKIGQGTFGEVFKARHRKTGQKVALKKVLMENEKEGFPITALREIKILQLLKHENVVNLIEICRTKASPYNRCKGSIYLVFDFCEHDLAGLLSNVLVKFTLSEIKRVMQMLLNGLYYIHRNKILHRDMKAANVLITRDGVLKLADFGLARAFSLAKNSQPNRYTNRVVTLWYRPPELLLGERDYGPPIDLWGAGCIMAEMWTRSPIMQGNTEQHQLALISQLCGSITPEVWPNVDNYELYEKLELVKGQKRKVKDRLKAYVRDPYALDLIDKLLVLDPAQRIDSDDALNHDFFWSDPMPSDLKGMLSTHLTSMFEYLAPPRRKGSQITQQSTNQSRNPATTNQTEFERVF
Sequence (O60563 whole entry partner): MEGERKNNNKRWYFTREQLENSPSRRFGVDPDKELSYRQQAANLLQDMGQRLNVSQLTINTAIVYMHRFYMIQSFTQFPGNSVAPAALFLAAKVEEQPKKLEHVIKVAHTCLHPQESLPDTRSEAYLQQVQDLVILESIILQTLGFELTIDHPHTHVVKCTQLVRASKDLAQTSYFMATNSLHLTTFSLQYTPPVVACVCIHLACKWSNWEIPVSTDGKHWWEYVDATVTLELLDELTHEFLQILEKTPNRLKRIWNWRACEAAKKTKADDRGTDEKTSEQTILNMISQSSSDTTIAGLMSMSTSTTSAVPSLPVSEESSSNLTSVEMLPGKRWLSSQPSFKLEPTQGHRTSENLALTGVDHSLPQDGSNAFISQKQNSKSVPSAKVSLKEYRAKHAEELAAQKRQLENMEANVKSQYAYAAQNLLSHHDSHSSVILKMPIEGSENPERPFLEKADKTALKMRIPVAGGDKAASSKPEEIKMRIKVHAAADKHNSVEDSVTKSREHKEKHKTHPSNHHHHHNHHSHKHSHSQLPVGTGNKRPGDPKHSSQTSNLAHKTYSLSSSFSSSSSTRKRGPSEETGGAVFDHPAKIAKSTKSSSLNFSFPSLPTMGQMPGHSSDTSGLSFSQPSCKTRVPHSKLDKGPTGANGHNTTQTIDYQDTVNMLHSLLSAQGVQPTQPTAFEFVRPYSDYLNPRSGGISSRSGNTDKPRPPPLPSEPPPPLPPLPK
Test: CDK protein kinase inhibition by ADP-Glo assay, CDK9-CYCLIN T1
Type: biochemical
Conditions: ADP-Glo, 1000 μM ATP; Table 11; read-out: CDK9-CYCLINT1, IC50
Protocol: CDK Protein Kinase Inhibition by ADP-Glo Assay This ADP-Glo assay measures ADP formed from a kinase reaction and indirectly quantifies the phosphorylation of peptide substrates by the CDK/cyclin protein complexes. […] At the end of the incubation, the reaction is quenched, and conversion is detected by luminescence using the Promega ADP-Glo™ Kinase Assay kit (catalog #V9102). […]
pIC50: −log10 of the molar value.
readoutName: pIC50

# example entries with known answers
>  <molecule>
O=C1N[C@H]2C[C@H](COc3cc(ccn3)Nc3cc(n[nH]3)[C@H]3CC[C@H](C3)O1)C2 [Compound 108]

>  <pIC50>
6.30 to 7.00

$$$$
>  <molecule>
O=C1NC23CC(COc4cc(cc(C(F)F)n4)Nc4cc([nH]n4)[C@H]4CC[C@H](C4)O1)(C2)C3 [Compound 19]

>  <pIC50>
< 6.30

$$$$
>  <molecule>
O=C1NC23CC(CCOc4cncc(c4)Nc4cc(n[nH]4)[C@H]4CC[C@H](C4)O1)(C2)C3 [Compound 117]

>  <pIC50>
7.30 to 8.00

$$$$

Please turn your attention to the following entry.
Sure, the documented pIC50 for C[C@H]1CCCNC(=O)O[C@@H]2CC[C@@H](C2)c2cc([nH]n2)Nc2ccnc(c2)O1 [compound 12] is 6.30 to 7.00

---

Target: CDK4-CYCLIN D1 (Homo sapiens, UniProt P11802)
Sequence (P11802 whole entry): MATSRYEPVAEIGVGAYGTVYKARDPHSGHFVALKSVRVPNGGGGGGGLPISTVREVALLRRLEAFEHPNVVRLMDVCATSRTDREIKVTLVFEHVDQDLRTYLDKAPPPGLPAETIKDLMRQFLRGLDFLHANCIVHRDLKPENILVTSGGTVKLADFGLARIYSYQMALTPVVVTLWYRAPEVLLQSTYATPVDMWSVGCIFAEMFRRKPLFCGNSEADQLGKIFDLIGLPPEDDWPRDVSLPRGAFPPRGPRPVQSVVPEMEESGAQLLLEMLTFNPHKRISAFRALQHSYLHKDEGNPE
Sequence (P24385 whole entry partner): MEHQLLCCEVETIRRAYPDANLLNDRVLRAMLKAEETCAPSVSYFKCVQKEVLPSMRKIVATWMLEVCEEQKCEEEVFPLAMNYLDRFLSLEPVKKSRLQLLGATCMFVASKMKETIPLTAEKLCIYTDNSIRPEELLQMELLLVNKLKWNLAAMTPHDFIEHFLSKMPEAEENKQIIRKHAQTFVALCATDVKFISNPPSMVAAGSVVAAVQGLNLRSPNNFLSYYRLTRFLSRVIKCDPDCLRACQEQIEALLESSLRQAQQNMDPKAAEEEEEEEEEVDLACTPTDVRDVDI
Assay: CDK protein kinase inhibition by ADP-Glo assay, CDK4-CYCLIN D1
Assay type: biochemical
Settings: CDK2 versus CDK4; Table 8
readoutName: CDK2 Fold Sensitivity, CDK4

>  <molecule>
C[C@@H]1CCCOc2cc(ccn2)Nc2cc([nH]n2)[C@H]2CC[C@H](C2)OC(=O)N1 [Compound 10]

>  <CDK2 Fold Sensitivity, CDK4>
C (C, >50 and ≤100)

$$$$
>  <molecule>
C[C@H]1CCCOc2cc(ccn2)Nc2cc([nH]n2)[C@H]2CC[C@H](C2)OC(=O)N1 [Compound 9]

>  <CDK2 Fold Sensitivity, CDK4>
B (B, >100 and ≤500)

$$$$
>  <molecule>
O=C1NCCCCOc2cc(cc(C(F)F)n2)Nc2cc([nH]n2)[C@H]2CC[C@H](C2)O1 [Compound 16]

>  <CDK2 Fold Sensitivity, CDK4>
B (B, >100 and ≤500)

$$$$
>  <molecule>
CC1(C)CCCOc2cc(ccn2)Nc2cc([nH]n2)[C@H]2CC[C@H](C2)OC(=O)N1 [Compound 13]

>  <CDK2 Fold Sensitivity, CDK4>
C (C, >50 and ≤100)

$$$$

Please turn your attention to the following entry.
Sure, the documented CDK2 Fold Sensitivity, CDK4 for O=C1NCCCCCc2cc(cc(C(F)F)n2)Nc2cc([nH]n2)[C@H]2CC[C@H](C2)O1 [Compound 17] is B (B, >100 and ≤500)

---

System: Phospho-Rb (Ser807/811) in OVCAR3 cells
Assay: Phospho-Rb expression inhibition in OVCAR3 cells quantified by In Cell Western
Format: cell-based
Settings: Homo sapiens, OVCAR-3, 24 hours, read-out: OVCAR-3 pRb IC50
pIC50: −log10 of the molar value.
readoutName: pIC50

# example entries with known answers
>  <molecule>
O=C1NC2CC(COc3cncc(c3)Nc3cc(n[nH]3)[C@H]3CC[C@H](C3)O1)C2

>  <tgt>
Phospho-Rb (Ser807/811) in OVCAR3 cells

>  <pIC50>
≥ 8.70

$$$$
>  <molecule>
C[C@@H]1NC(=O)O[C@@H]2CC[C@@H](C2)c2cc([nH]n2)Nc2cncc(n2)OCCC1(F)F

>  <tgt>
Phospho-Rb (Ser807/811) in OVCAR3 cells

>  <pIC50>
≥ 8.70

$$$$
>  <molecule>
[2H]C1([2H])Oc2cc(ccn2)Nc2[nH]nc(c2F)[C@H]2CC[C@H](C2)OC(=O)N[C@H]2C[C@H]1C2

>  <tgt>
Phospho-Rb (Ser807/811) in OVCAR3 cells

>  <pIC50>
7.30 to 8.00

$$$$

Please turn your attention to the following entry.
Sure, the documented pIC50 for CC1CCCOc2cc(ccn2)Nc2cc([nH]n2)[C@H]2CC[C@H](C2)OC(=O)N1 (mixture of isomers) is 8.00 to 8.70

---

Biological target: CDK1-CYCLIN B (Homo sapiens, UniProt P06493)
Test: CDK protein kinase inhibition by ADP-Glo assay, CDK1-CYCLIN B
Assay type: biochemical
Conditions: ADP-Glo, 1000 μM ATP; Table 31; read-out: CDK1-CYCLINB, IC50
pIC50: −log10 of the molar value.
Item-by-item account of pIC50

>  <molecule>
O=C1N[C@H]2C[C@@H](CC(F)(F)c3cc(ccn3)Nc3cc(n[nH]3)[C@H]3CC[C@H](C3)O1)C2 (single isomer, unassigned)

>  <assayValue>
≥ 8.00

$$$$
>  <molecule>
C[C@H]1CCCC(F)(F)c2cc(ccn2)Nc2cc(n[nH]2)[C@H]2CC[C@H](C2)OC(=O)N1

>  <assayValue>
7.30 to 8.00

$$$$
>  <molecule>
C[C@@H]1NC(=O)O[C@@H]2CC[C@@H](C2)c2cc([nH]n2)Nc2ccnc(c2)COCC1(F)F

>  <assayValue>
≥ 8.00

$$$$

Please turn your attention to the following entry.
Sure, the documented pIC50 for C[C@H]1NC(=O)O[C@@H]2CC[C@@H](C2)c2cc([nH]n2)Nc2ccnc(c2)COCC1(F)F is 7.30 to 8.00
